# SYSTEM NAME: acetylcholinesterase (h) (Homo sapiens, UniProt P22303)
# Sequence (P22303 32-614): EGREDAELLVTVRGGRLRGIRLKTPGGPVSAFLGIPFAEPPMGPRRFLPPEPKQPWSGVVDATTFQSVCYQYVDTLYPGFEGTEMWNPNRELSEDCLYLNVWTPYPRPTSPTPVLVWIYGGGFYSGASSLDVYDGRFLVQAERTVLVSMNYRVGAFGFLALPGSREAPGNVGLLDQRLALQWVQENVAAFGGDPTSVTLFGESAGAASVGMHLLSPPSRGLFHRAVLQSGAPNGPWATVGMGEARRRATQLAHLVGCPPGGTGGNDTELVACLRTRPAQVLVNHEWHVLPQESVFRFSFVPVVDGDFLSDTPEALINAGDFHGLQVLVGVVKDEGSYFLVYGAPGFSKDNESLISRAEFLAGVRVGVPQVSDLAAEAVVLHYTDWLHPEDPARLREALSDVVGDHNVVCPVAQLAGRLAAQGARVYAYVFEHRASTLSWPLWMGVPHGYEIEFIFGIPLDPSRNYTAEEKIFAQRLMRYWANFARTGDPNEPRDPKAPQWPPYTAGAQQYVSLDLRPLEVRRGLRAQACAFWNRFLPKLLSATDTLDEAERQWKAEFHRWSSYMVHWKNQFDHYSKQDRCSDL
# EXPERIMENTAL PROTOCOL: acetylcholinesterase (h)
# COND: read-out: Inhibition acetylcholinesterase (h)
Record form. Attribute: inhibition at 10 µM. Fill in for each entry.
Please reply with the bare figure in % and do not write the unit itself.

Q: # value lookup — system acetylcholinesterase (h) (Homo sapiens, UniProt P22303), readout inhibition at 10 µM, item O=C(O[C@H](CO)C(F)(F)F)N1CC2(CC(CC3=C4C=CC=[N+]4[B-](F)(F)n4cccc43)C2)C1
A: -8.2

Q: # value lookup — system acetylcholinesterase (h) (Homo sapiens, UniProt P22303), readout inhibition at 10 µM, item O=C(OC(C(F)(F)F)C(F)(F)F)N1CC2(CC(CC3=C4C=CC(c5ccc[nH]5)=[N+]4[B-](F)(F)n4cccc43)C2)C1
A: 2.5

Q: # value lookup — system acetylcholinesterase (h) (Homo sapiens, UniProt P22303), readout inhibition at 10 µM, item O=C1CO[C@H]2CCN(C(=O)N3CC4(CC(CC5=C6C=CC(c7ccc[nH]7)=[N+]6[B-](F)(F)n6cccc65)C4)C3)C[C@H]2N1
A: 1.8

Q: # value lookup — system acetylcholinesterase (h) (Homo sapiens, UniProt P22303), readout inhibition at 10 µM, item O=C(OC(C(F)(F)F)C(F)(F)F)N1CC2(CC(CC3=C4C=CC=[N+]4[B-](F)(F)n4cccc43)C2)C1
A: -2.9

Q: # value lookup — system acetylcholinesterase (h) (Homo sapiens, UniProt P22303), readout inhibition at 10 µM, item O=C(N1CC2(CC(CC3=C4C=CC=[N+]4[B-](F)(F)n4cccc43)C2)C1)N1CC2(CC(n3cnc(C4CC4)n3)C2)C1
A: -14.4

###

# SYSTEM NAME: 5-HT3 (h) (Homo sapiens, UniProt P46098)
# Sequence (P46098 24-478): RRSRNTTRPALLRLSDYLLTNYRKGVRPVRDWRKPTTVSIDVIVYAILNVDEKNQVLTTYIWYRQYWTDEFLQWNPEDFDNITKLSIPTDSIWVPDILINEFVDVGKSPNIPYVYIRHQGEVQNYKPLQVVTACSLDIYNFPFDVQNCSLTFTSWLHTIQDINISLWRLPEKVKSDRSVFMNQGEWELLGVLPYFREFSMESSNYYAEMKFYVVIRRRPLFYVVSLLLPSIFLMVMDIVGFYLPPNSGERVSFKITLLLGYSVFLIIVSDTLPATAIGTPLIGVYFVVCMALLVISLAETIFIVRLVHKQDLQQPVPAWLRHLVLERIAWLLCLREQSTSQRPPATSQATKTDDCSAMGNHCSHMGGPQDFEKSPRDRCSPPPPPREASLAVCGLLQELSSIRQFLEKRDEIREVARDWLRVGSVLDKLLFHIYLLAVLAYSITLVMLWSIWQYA
# EXPERIMENTAL PROTOCOL: 5-HT3 (h) (antagonist radioligand)
# COND: read-out: Inhibition 5-HT3 (h) (antagonist radioligand)
Record form. Attribute: inhibition at 10 µM. Fill in for each entry.
Please reply with the bare figure in % and do not write the unit itself.

Q: Query (compound): O=C(OC(C(F)(F)F)C(F)(F)F)N1CC2(CC(CC3=C4C=CC(c5ccc[nH]5)=[N+]4[B-](F)(F)n4cccc43)C2)C1 ; field requested: inhibition at 10 µM
A: 4.7

Q: Query (compound): O=C(OC(C(F)(F)F)C(F)(F)F)N1CC2(CC(CC3=C4C=CC=[N+]4[B-](F)(F)n4cccc43)C2)C1 ; field requested: inhibition at 10 µM
A: -5.6

Q: Query (compound): O=C(O[C@H](CO)C(F)(F)F)N1CC2(CC(CC3=C4C=CC=[N+]4[B-](F)(F)n4cccc43)C2)C1 ; field requested: inhibition at 10 µM
A: 7.4

Q: Query (compound): O=C1CO[C@H]2CCN(C(=O)N3CC4(CC(CC5=C6C=CC(c7ccc[nH]7)=[N+]6[B-](F)(F)n6cccc65)C4)C3)C[C@H]2N1 ; field requested: inhibition at 10 µM
A: 1.1

Q: Query (compound): O=C(N1CC2(CC(CC3=C4C=CC=[N+]4[B-](F)(F)n4cccc43)C2)C1)N1CC2(CC(n3cnc(C4CC4)n3)C2)C1 ; field requested: inhibition at 10 µM
A: 1.4
